measured_target: Recombinant human Bcl-2 protein (Homo sapiens (Human), UniProt P10415)
Sequence (P10415 whole entry): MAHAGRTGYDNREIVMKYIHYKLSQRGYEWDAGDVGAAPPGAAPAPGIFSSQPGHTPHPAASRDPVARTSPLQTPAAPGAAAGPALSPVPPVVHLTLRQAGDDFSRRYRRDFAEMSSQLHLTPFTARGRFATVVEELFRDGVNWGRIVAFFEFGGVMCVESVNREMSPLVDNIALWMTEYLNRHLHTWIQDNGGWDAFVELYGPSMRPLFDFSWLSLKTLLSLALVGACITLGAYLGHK
assay_comment: Bcl-2 TR-FRET Assay
Assay type: binding
condition_summary: Bcl-2 wild type, TR-FRET; read-out: Biochemical assay (IC50, nM) Bcl-2 WT
Label 1 when IC50 < 0.3 nM; otherwise -1.

Does this compound meet the criterion IC50 < 0.3 nM? COc1cc(CN2CCN(C3CC4(CCN(c5ccc(C(=O)NS(=O)(=O)c6ccc(NC[C@H]7CC[C@](C)(O)CC7)c([N+](=O)[O-])c6)c(Oc6cnc7[nH]ccc7c6)c5)CC4)C3)C(c3ccccc3C(C)C)C2)ccc1F (some centres unmarked)
1

In the record for `COc1cc(CN2CCN(C3CC4(C3)CN(c3ccc(C(=O)NS(=O)(=O)c5ccc(NC[C@H]6CC[C@](C)(O)CC6)c([N+](=O)[O-])c5)c(Oc5cnc6[nH]cc(F)c6c5)c3)C4)[C@H](c3ccccc3C(C)C)C2)ccc1N1CC(OC)C1` , is IC50 less than 0.3 nM?
1

Please state whether IC50 is below 0.3 nM for `COc1cc(CN2CCN(C3CC4(C3)CN(c3ccc(C(=O)NS(=O)(=O)c5ccc(NC[C@H]6CC[C@](C)(O)CC6)c([N+](=O)[O-])c5)c(Oc5cnc6[nH]cc(F)c6c5)c3)C4)[C@H](c3ccccc3C(C)C)C2)ccc1C(F)(F)F`
-1

Does COc1ccc(CN2CCN(C3CC4(CCN(c5ccc(C(=O)NS(=O)(=O)c6ccc(NC[C@H]7CC[C@](C)(O)CC7)c([N+](=O)[O-])c6)c(Oc6cnc7[nH]cc(F)c7c6)c5)CC4)C3)[C@H](c3ccccc3C(C)C)C2)cc1 (single isomer, unassigned) have IC50 strictly under 0.3 nM?
1

Check if IC50 falls below 0.3 nM for `COc1cc(CN2CCN(C3CC4(CCN(c5ccc(C(=O)NS(=O)(=O)c6ccc(NC[C@H]7CC[C@](C)(O)CC7)c([N+](=O)[O-])c6)c(Oc6cnc7[nH]cc(F)c7c6)c5)CC4)C3)[C@H](c3ccccc3C(C)C)C2)ccc1C` .
-1

Record COc1ccc(CN2CCN(C3CC4(CCN(c5ccc(C(=O)NS(=O)(=O)c6ccc(NC[C@H]7CC[C@](C)(O)CC7)c([N+](=O)[O-])c6)c(Oc6cnc7[nH]ccc7c6)c5)CC4)C3)C(c3ccccc3C(C)C)C2)cc1C1CC1 (some centres unmarked) : is its IC50 strictly below 0.3 nM?
-1

Lab note: IC50 threshold 0.3 nM. Does this compound come in strictly under it? CC#CC(c1ccccc1)N1CCN(C2CC3(CCN(c4ccc(C(=O)NS(=O)(=O)c5ccc(NC[C@H]6CC[C@](C)(O)CC6)c([N+](=O)[O-])c5)c(Oc5cnc6[nH]ccc6c5)c4)CC3)C2)C(c2ccccc2C(C)C)C1 (some centres unmarked)
-1

Field: below-cutoff. Rule: recorded IC50 strictly less than 0.3 nM. Subject: COc1ccc(CN2CCN(C3CC4(C3)CN(c3ccc(C(=O)NS(=O)(=O)c5ccc(NC[C@H]6CC[C@](C)(O)CC6)c([N+](=O)[O-])c5)c(Oc5cnc6[nH]cc(F)c6c5)c3)C4)[C@H](c3ccccc3C(C)C)C2)cc1OC [Example 141a]
1

====

Assignment: determine reported IC50 for the given molecules.
measured_target: Recombinant human Bcl-2 protein (Homo sapiens (Human))
assay_comment: Bcl-2 TR-FRET Assay
Format: binding
condition_summary: Bcl-2 wild type, TR-FRET; read-out: Biochemical assay (IC50, nM) Bcl-2 WT
State the value, then name its unit.

Given item CC(C)c1ccccc1C1CN(CC2CCOc3ccccc32)CCN1C1CC2(CCN(c3ccc(C(=O)NS(=O)(=O)c4ccc(NC[C@H]5CC[C@](C)(O)CC5)c([N+](=O)[O-])c4)c(Oc4cnc5[nH]ccc5c4)c3)CC2)C1 (stereo partly shown) [Example 57] , the value recorded as its IC50 is 0.44 nM

Memo: CC(C)c1ccccc1C1CN(Cc2cccc3c2OCCCO3)CCN1C1CC2(CCN(c3ccc(C(=O)NS(=O)(=O)c4ccc(NC[C@H]5CC[C@](C)(O)CC5)c([N+](=O)[O-])c4)c(Oc4cnc5[nH]ccc5c4)c3)CC2)C1 (stereo partly shown) [Example 107] , reported IC50: 0.11 nM

Reported IC50 ( CC(C)c1ccccc1C1CN(C2CCCCC2)CCN1C1CC2(CCN(c3ccc(C(=O)NS(=O)(=O)c4ccc(NC[C@H]5CC[C@](C)(O)CC5)c([N+](=O)[O-])c4)c(Oc4cnc5[nH]ccc5c4)c3)CC2)C1 (stereo partly shown) [Example 9] ) = 0.034 nM

molecule CCc1ccc(CN2CCN(C3CC4(C3)CN(c3ccc(C(=O)NS(=O)(=O)c5ccc(NC[C@H]6CC[C@](C)(O)CC6)c([N+](=O)[O-])c5)c(Oc5cnc6[nH]cc(F)c6c5)c3)C4)[C@H](c3ccccc3C(C)C)C2)cc1OC [Example 268] , IC50 observed: 0.79 nM

Noted for COc1cc(CN2CCN(C3CC4(C3)CN(c3ccc(C(=O)NS(=O)(=O)c5ccc(NC[C@H]6CC[C@](C)(O)CC6)c([N+](=O)[O-])c5)c(Oc5cnc6[nH]cc(F)c6c5)c3)C4)[C@H](c3ccccc3C(C)C)C2)cc2c1OCCC2 [Example 312] : its IC50 reads 0.094 nM

IC50 in this record for COc1cc(CN2CCN(C3CC4(C3)CN(c3ccc(C(=O)NS(=O)(=O)c5ccc(NC[C@H]6CC[C@](C)(O)CC6)c([N+](=O)[O-])c5)c(Oc5cnc6[nH]cc(F)c6c5)c3)C4)[C@H](c3ccccc3C(C)C)C2)ccc1OC1CCC1 [Example 350] : 0.48 nM

Reported IC50 ( COCCN1CCN(C2CC3(CCN(c4ccc(C(=O)NS(=O)(=O)c5ccc(NC[C@H]6CC[C@](C)(O)CC6)c([N+](=O)[O-])c5)c(Oc5cnc6[nH]ccc6c5)c4)CC3)C2)[C@@H](c2ccccc2C(C)C)C1 (single isomer, unassigned) [Example 13a] ) = 0.038 nM

Memo: COc1ccc(CN2CCN(C3CC4(CCN(c5ccc(C(=O)NS(=O)(=O)c6ccc(NCC7(F)CCOCC7)c([N+](=O)[O-])c6)c(Oc6cnc7[nH]ccc7c6)c5)CC4)C3)[C@H](c3ccccc3C(C)C)C2)cc1 (single isomer, unassigned) [Example 32] , reported IC50: 0.096 nM

molecule COc1cc(CN2CCN(C3CC4(C3)CN(c3ccc(C(=O)NS(=O)(=O)c5ccc(NC[C@H]6CC[C@](C)(O)CC6)c([N+](=O)[O-])c5)c(Oc5cnc6[nH]cc(F)c6c5)c3)C4)[C@H](c3ccccc3C(C)C)C2)cc2c1OC(C)(C)C=C2 [Example 330] , IC50 observed: 0.26 nM

Noted for COc1ccc(CN2CCN(C3CC4(CCN(c5ccc(C(=O)NS(=O)(=O)c6ccc(OCC7CCC(C)(O)CC7)c([N+](=O)[O-])c6)c(Oc6cnc7[nH]ccc7c6)c5)CC4)C3)[C@H](c3ccccc3C(C)C)C2)cc1 (stereo partly shown) [Example 236] : its IC50 reads 0.16 nM

Entry COc1ccc(CN2CCN(C3CC4(C3)CN(c3ccc(C(=O)NS(=O)(=O)c5ccc(NC[C@H]6CC[C@](C)(O)CC6)c([N+](=O)[O-])c5)c(Oc5cnc6[nH]ccc6c5)c3)C4)[C@H](c3ccccc3C(C)C)C2)cc1 [Example 147] — recorded IC50 = 0.054 nM

IC50 reported for this molecule COc1cc(CN2CCN(C3CC4(C3)CN(c3ccc(C(=O)NS(=O)(=O)c5ccc(NC[C@H]6CC[C@](C)(O)CC6)c([N+](=O)[O-])c5)c(Oc5cnc6[nH]ccc6c5)c3)C4)[C@H](c3ccccc3C(C)C)C2)cc2cc(C)oc12 [Example 339] : 0.28 nM

Data point: COc1ccc(CN2CCN(C3CC4(C3)CN(c3ccc(C(=O)NS(=O)(=O)c5ccc(NCC6CCOCC6)c([N+](=O)[O-])c5)c(Oc5cnc6[nH]ccc6c5)c3)C4)[C@H](c3ccccc3C(C)C)C2)cc1OC [Example 173] ; IC50 = 0.017 nM

Form: molecule = COc1ccc(CN2CCN(C3CC4(CCN(c5ccc(C(=O)NS(=O)(=O)c6ccc(NC[C@H]7CC[C@](C)(O)CC7)c([N+](=O)[O-])c6)c(Oc6cnc7[nH]ccc7c6)c5)CC4)C3)C(c3ccccc3C(C)C)C2)c(OC)c1 (stereo partly shown) [Example 48] ; IC50 = 0.072 nM

Per the record, COc1cc(CN2CCN(C3CC4(C3)CN(c3ccc(C(=O)NS(=O)(=O)c5ccc(NC[C@H]6CC[C@](C)(O)CC6)c([N+](=O)[O-])c5)c(Oc5cnc6[nH]ccc6c5)c3)C4)[C@H](c3ccccc3C(C)C)C2)cc2ccoc12 [Example 307] has IC50 of 0.17 nM

The recorded IC50 for CC(C)c1ccccc1C1CN(Cc2ccoc2)CCN1C1CC2(CCN(c3ccc(C(=O)NS(=O)(=O)c4ccc(NC[C@H]5CC[C@](C)(O)CC5)c([N+](=O)[O-])c4)c(Oc4cnc5[nH]ccc5c4)c3)CC2)C1 (stereo partly shown) [Example 20] is 0.053 nM
